system: Trichophyton rubrum
observation.type: MIC
In your response, put the unit directly after the numeric value.

Would you please look over these solved cases?
[
  {
    "compound": "C=CCOC(Cn1cc[n+](CC(=O)c2ccc(F)cc2)c1)c1ccc(Cl)cc1Cl (stereo not shown) [2,4(Cl)2C6H3/CH2CHCH2/CH2COC6H4pF]",
    "MIC": "10 µg/mL"
  },
  {
    "compound": "O=C(C[n+]1ccn(CC(OCc2ccc(Cl)cc2Cl)c2ccc(Cl)cc2Cl)c1)c1ccc(F)cc1.[Cl-] (stereo not shown) [CH2COC6H4pF]",
    "MIC": "1 µg/mL"
  },
  {
    "compound": "COc1cccc(NC(=O)C[n+]2ccn(CC(OCc3ccc(Cl)cc3Cl)c3ccc(Cl)cc3Cl)c2)c1 (stereo not shown) [CH2CONHC6H4m(OCH3), hydrate]",
    "MIC": "1 µg/mL"
  }
]

Could you now consider this next compound?
Lab note: measured MIC of O=C(C[n+]1ccn(CC(OCc2ccc(Cl)cc2)c2ccc(Cl)cc2)c1)Nc1ccc(F)cc1 (stereo not shown) [pClC6H4/CH2C6H4pCl/CH2CONHC6H4pF] was 10 µg/mL

----------
System: Erysipelothrix insidiosa | Read-out: MIC
Answer with a number only, understood to be in µg/mL.

Erysipelothrix insidiosa data for OC(Cn1cc[n+](CC(OCc2ccc(Cl)cc2Cl)c2ccc(Cl)cc2Cl)c1)c1ccc(Cl)cc1.[Br-] (stereo not shown) [CH2CHOHC6H4pCl] ; its MIC: 1

Record for Cc1cc(Cl)ccc1NC(=O)CCn1cc[n+](CC(OCc2ccc(Cl)cc2Cl)c2ccc(Cl)cc2Cl)c1.[Cl-] (stereo not shown) [(CH2)2CONHC6H32,4(CH3,Cl)] under target or system Erysipelothrix insidiosa: MIC reported as 1

Here Cc1ccccc1NC(=O)C[n+]1ccn(CC(OCc2ccc(Cl)cc2Cl)c2ccc(Cl)cc2Cl)c1 (stereo not shown) [CH2CONHC6H4oCH3] was tested on Erysipelothrix insidiosa, and its MIC came to 1

----------
test system: Cryptococcus neoformans
MIC values by entry
Quick reminder: number only, in µg/mL, skip the unit.

[
  {
    "compound": "Clc1ccc(NCCn2cc[n+](CC(OCc3ccc(Cl)cc3Cl)c3ccc(Cl)cc3Cl)c2)cc1.[Br-] (centres unmarked)",
    "MIC, µg/mL": 1
  },
  {
    "compound": "Cc1cccc(C)c1N(C)C(=O)C[n+]1ccn(CC(OCc2ccc(Cl)cc2Cl)c2ccc(Cl)cc2Cl)c1 (centres unmarked)",
    "MIC, µg/mL": 10
  },
  {
    "compound": "O=C(C[n+]1ccn(CC(OCc2ccc(Cl)cc2Cl)c2ccc(Cl)cc2Cl)c1)Nc1ccc(Cl)cc1Cl (centres unmarked) [CH2CONHC6H32,4(Cl)2, hydrate]",
    "MIC, µg/mL": 1
  },
  {
    "compound": "Cc1cccc(Cl)c1CNC(=O)C(C)[n+]1ccn(CC(OCc2ccc(Cl)cc2Cl)c2ccc(Cl)cc2Cl)c1 (centres unmarked)",
    "MIC, µg/mL": 100
  },
  {
    "compound": "Cc1cccc(C)c1OCC[n+]1ccn(CC(OCc2ccc(Cl)cc2Cl)c2ccc(Cl)cc2Cl)c1.[Br-] (centres unmarked)",
    "MIC, µg/mL": 1
  },
  {
    "compound": "Cc1ccccc1NC(=O)C[n+]1ccn(CC(OCc2ccc(Cl)cc2)c2ccc(Cl)cc2Cl)c1 (centres unmarked)",
    "MIC, µg/mL": 10
  }
]

// next item, MIC requested
Entry Clc1ccc(COC(Cn2cc[n+](CCOc3ccc4ccccc4c3)c2)c2ccc(Cl)cc2Cl)c(Cl)c1.O.[Br-] (centres unmarked) under Cryptococcus neoformans had MIC of 1
